biological target: T1, cTnI quality control product recombinant protein (human, UniProt P19429 2-210, limits assumed); assay: AMC sensor, antibody immobilised, cTnI in solution
T1 construct: treated as the same molecule; also called cTnI antigen; cardiac troponin I
T1 sequence (P19429 2-210 limits assumed): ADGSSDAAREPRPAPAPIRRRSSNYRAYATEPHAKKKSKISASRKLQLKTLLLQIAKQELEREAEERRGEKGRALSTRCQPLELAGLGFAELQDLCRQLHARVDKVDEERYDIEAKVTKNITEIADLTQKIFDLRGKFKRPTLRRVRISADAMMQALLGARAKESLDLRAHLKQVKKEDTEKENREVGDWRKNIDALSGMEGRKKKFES
Just so you know, the groups by koff go like this: low (below 0.0002 s⁻¹), intermediate (0.0002 s⁻¹ to below 0.0003 s⁻¹), high (0.0003 s⁻¹ or more)

Q) // return the class label for Mutation 1-19 (antibody, V domains shown, Built as m8) VH: EVQLQQSGPELVKPGASVKMSCKASGYTFTIYVLHWVKQKPGQGLEWIGYINPYLDGTKYNEKFKGKATLTVDKSSSTAFMELSSLTSEDSAVYYCARSGYGNYGLAWLAYWGQGTLVTVSA VL: QAVVIQESALTTSPGETVTLTCRSSTGAVTTSNYANWVQEKPDHLFTGLIGGSQNRAPGVPARFSGSLIGDKAALTITGAQTEDEAIYFCALVYSNQWVFGGGTKLTVLG
A) intermediate

Q) // return the class label for Mutation 1-38 (antibody, V domains shown, Built as m8) VH: EVQLQQSGPELVKPGASVKMSCKASGYTFTIYVIHWVKQKPGQGLEWIGYIYPYIDGTKYNEKFKGKATLTVDKSSSTAFMELSSLTSEDSAVYYCARSGYGGYGLAWLAYWGQGTLVTVSA VL: QAVVIQESALTTSPGETVTLTCRSSTGAVTTSQYANWVQEKPDHLFTGLIGGSNNRAPGVPARFSGSLIGDKAALTITGAQTEDEAIYFCALVYSNNWVFGGGTKLTVLG
A) low

Q) // return the class label for Mutation 1-46 (antibody, V domains shown, Built as m8) VH: EVQLQQSGPELVKPGASVKMSCKASGYTFTIYVLHWVKQKPGQGLEWIGYINPYIDGTKYNEKFKGKATLTVDKSSSTAFMELSSLTSEDSAVYYCARSGYGNYGLAWLAYWGQGTLVTVSA VL: QAVVIQESALTTSPGETVTLTCRSSTGAVTTSNYANWVQEKPDHLFTGLIGGSNNRAPGVPARFSGSLIGDKAALTITGAQTEDEAIYFCALVYSNNWVFGGGTKLTVLG
A) intermediate

Q) // return the class label for Mutation 1-53 (antibody, V domains shown, Built as m8) VH: EVQLQQSGPELVKPGASVKMSCKASGYTFTIYVVHWVKQKPGQGLEWIGYIYPYIDGTKYNEKFKGKATLTVDKSSSTAFMELSSLTSEDSAVYYCARSGYGGYGLAWLAYWGQGTLVTVSA VL: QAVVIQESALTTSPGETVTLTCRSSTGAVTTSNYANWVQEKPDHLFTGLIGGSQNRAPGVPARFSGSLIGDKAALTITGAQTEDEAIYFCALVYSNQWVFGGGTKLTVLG
A) high

Q) // return the class label for Mutation 1-22 (antibody, V domains shown, Built as m8) VH: EVQLQQSGPELVKPGASVKMSCKASGYTFTLYVLHWVKQKPGQGLEWIGYIYPYIDGTKYNEKFKGKATLTVDKSSSTAFMELSSLTSEDSAVYYCARSGYGNYGLAWLAYWGQGTLVTVSA VL: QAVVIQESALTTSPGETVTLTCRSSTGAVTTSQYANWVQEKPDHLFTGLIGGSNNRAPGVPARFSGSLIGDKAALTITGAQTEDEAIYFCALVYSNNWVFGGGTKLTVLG
A) low

Q) // return the class label for Mutation 1-17 (antibody, V domains shown, Built as m8) VH: EVQLQQSGPELVKPGASVKMSCKASGYTFTLYVIHWVKQKPGQGLEWIGYINPYLDGTKYNEKFKGKATLTVDKSSSTAFMELSSLTSEDSAVYYCARSGYGGYGLAWLAYWGQGTLVTVSA VL: QAVVIQESALTTSPGETVTLTCRSSTGAATTSNYANWVQEKPDHLFTGLIGGSQNRAPGVPARFSGSLIGDKAALTITGAQTEDEAIYFCALVYSNQWVFGGGTKLTVLG
A) intermediate

Q) // return the class label for Mutation 1-9 (antibody, V domains shown, Built as m8) VH: EVQLQQSGPELVKPGASVKMSCKASGYTFTLYVVHWVKQKPGQGLEWIGYIQPYLDGTKYNEKFKGKATLTVDKSSSTAFMELSSLTSEDSAVYYCARSGYGQYGLAWLAYWGQGTLVTVSA VL: QAVVIQESALTTSPGETVTLTCRSSTGAATTSNYANWVQEKPDHLFTGLIGGSQNRAPGVPARFSGSLIGDKAALTITGAQTEDEAIYFCALVYSNHWVFGGGTKLTVLG
A) intermediate

Q) // return the class label for Mutation 1-39 (antibody, V domains shown, Built as m8) VH: EVQLQQSGPELVKPGASVKMSCKASGYTFTLYVVHWVKQKPGQGLEWIGYIQPYLDGTKYNEKFKGKATLTVDKSSSTAFMELSSLTSEDSAVYYCARSGYGQYGLAWLAYWGQGTLVTVSA VL: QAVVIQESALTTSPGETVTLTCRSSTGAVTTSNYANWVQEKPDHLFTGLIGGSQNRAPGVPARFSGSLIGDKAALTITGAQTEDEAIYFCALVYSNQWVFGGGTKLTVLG
A) low

Q) // return the class label for Mutation 1-31 (antibody, V domains shown, Built as m8) VH: EVQLQQSGPELVKPGASVKMSCKASGYTFTIYVLHWVKQKPGQGLEWIGYINPYIDGTKYNEKFKGKATLTVDKSSSTAFMELSSLTSEDSAVYYCARSGYGNYGLAWLAYWGQGTLVTVSA VL: QAVVIQESALTTSPGETVTLTCRSSTGAATTSQYANWVQEKPDHLFTGLIGGSQNRAPGVPARFSGSLIGDKAALTITGAQTEDEAIYFCALVYSNNWVFGGGTKLTVLG
A) high

Q) // return the class label for Mutation 1-2 (antibody, V domains shown, Built as m8) VH: EVQLQQSGPELVKPGASVKMSCKASGYTFTIYVIHWVKQKPGQGLEWIGYIQPYIDGTKYNEKFKGKATLTVDKSSSTAFMELSSLTSEDSAVYYCARSGYGGYGLAWLAYWGQGTLVTVSA VL: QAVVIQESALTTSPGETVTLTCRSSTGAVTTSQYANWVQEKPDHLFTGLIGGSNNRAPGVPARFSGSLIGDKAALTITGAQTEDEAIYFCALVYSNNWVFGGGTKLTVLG
A) high
